Recorded values, source ChEMBL document CHEMBL1143019.

System: Mycobacterium kansasii
Test: Antimicrobial activity against Mycobacterium kansasii My 6509/96 after 21 days
Type: functional
Conditions: 504 h
MEASUREMENT KIND: MIC (µM)
Respond numerically; units are µM and should not be typed.

These recorded examples may help you get a feel for the data.
NNC(=O)c1ccncc1 = 8
Cc1ccc(CSc2ccncc2)cc1 = 125
Sc1nnnn1-c1ccc(Cl)c(Cl)c1 = 500
C[C@]12CC[C@@H]3c4ccc(OCCCCCCC[n+]5ccc(SCc6ccccc6)cc5)cc4CC[C@H]3[C@@H]1CCC2=O.[Br-] = 16

Here's the next entry for you.
Could you share which MIC value was measured for c1ccc(CSc2ccncc2)cc1 ? 125
